Values compiled from patent US9686994B2.

Listing: damage (phytotoxicity), average rating, Line C of selected compounds
# Tested on: sugar beet plants where the proline at position 188 of the encoded ALS enzyme is substituted by a serine, Line C
# Protocol summary: Greenhouse trial: ALS inhibitor treatment of sugar beets in direct comparison, Line C
# Format: in vivo, Beta vulgaris L. ssp. vulgaris
# Condition set: day 14 after application at BBCH 14; scale 0% no damage to 100% completely killed; g/ha: foramsulfuron 13, iodosulfuron-methyl-Na 3.5, amidosulfuron 15, thiencarbazone-methyl 7.5, Bisbyribac-Na 50, metosulam 15
Observation type: damage (phytotoxicity), average rating, Line C (%)

* COC(=O)c1ccc(I)cc1S(=O)(=O)[N-]C(=O)Nc1nc(C)nc(OC)n1.[Na+] [Iodosulfuron-methyl-Na, iodosulfuron-methyl-sodium] | 80.0
* COc1cc(OC)nc(NC(=O)NS(=O)(=O)c2cc(NC=O)ccc2C(=O)N(C)C)n1 | 77.5
* COc1cc(OC)nc(NC(=O)NS(=O)(=O)N(C)S(C)(=O)=O)n1 | 51.9
* COc1cc(OC)n2nc(S(=O)(=O)Nc3c(Cl)ccc(C)c3Cl)nc2n1 | 69.4
* COc1cc(OC)nc(Oc2cccc(Oc3nc(OC)cc(OC)n3)c2C(=O)O)n1 [Bisbyribac-Na, bispyribac-sodium] | 71.7
* COC(=O)c1csc(C)c1S(=O)(=O)NC(=O)n1nc(OC)n(C)c1=O | 37.5

---

# System: traditional variety (wild-type) sugar beet plant not having a mutation at positions 569 and 188, Line WT
# Protocol summary: Greenhouse trial: ALS inhibitor treatment of sugar beets in direct comparison, Line WT
# Type: in vivo, Beta vulgaris L. ssp. vulgaris
# Condition set: day 14 after application at BBCH 14; scale 0% no damage to 100% completely killed; g/ha: foramsulfuron 13, iodosulfuron-methyl-Na 3.5, amidosulfuron 15, thiencarbazone-methyl 7.5, Bisbyribac-Na 50, metosulam 15
Listing: damage (phytotoxicity), average rating, Line WT of selected compounds
Observation type: damage (phytotoxicity), average rating, Line WT (%)

• COc1cc(OC)n2nc(S(=O)(=O)Nc3c(Cl)ccc(C)c3Cl)nc2n1 = 79.4
• COC(=O)c1ccc(I)cc1S(=O)(=O)[N-]C(=O)Nc1nc(C)nc(OC)n1.[Na+] [Iodosulfuron-methyl-Na, iodosulfuron-methyl-sodium] = 82.5
• COC(=O)c1csc(C)c1S(=O)(=O)NC(=O)n1nc(OC)n(C)c1=O = 84.4
• COc1cc(OC)nc(NC(=O)NS(=O)(=O)c2cc(NC=O)ccc2C(=O)N(C)C)n1 = 80.0
• COc1cc(OC)nc(NC(=O)NS(=O)(=O)N(C)S(C)(=O)=O)n1 = 73.1
• COc1cc(OC)nc(Oc2cccc(Oc3nc(OC)cc(OC)n3)c2C(=O)O)n1 [Bisbyribac-Na, bispyribac-sodium] = 80.0
